Values compiled from patent US20220177587A1.

Target: CD28 (Homo sapiens, UniProt P10747)
Test: Jurkat/IL2 + K562/OKT3/PD-L1 reporter assay
Type: cell-based
Design: host or cells: Jurkat cells expressing an IL-2-luciferase reporter
Conditions: Table E8; K562/OKT3/PD-L1 aAPC; 50 nM
PROPERTY: Relative Luciferase Units (RLU), CD80-Fe Cone 50 nM
Answers are plain numbers, in RLU.

In: Return reported Relative Luciferase Units (RLU), CD80-Fe Cone 50 nM; argument: E35D/T41S/M43V/M47I/L70M/A71G (protein, UniProt P33681 35-288, looked up, variant E35D T41S M43V M47I L70M A71G, Fc fusion) T-lymphocyte activation …: VIHVTKEVKEVATLSCGHNVSVEELAQTRIYWQKDKKMVLSMVSGDINIWPEYKNRTIFDITNNLSIVIMGLRPSDEGTYECVVLKYEKDAFKREHLAEVTLSVKADFPTPSISDFEIPTSNIRRIICSTSGGFPEPHLSWLENGEELNAINTTVSQDPETELYAVSSKLDFNMTTNHSFMCLIKYGHLRVNQTFNWNTTKQEHFPDNLLPSWAITLISVNGIFVICCLTYCFAPRCRERRRNERLRRESVRPV
Out: 1672
